src = patent US9944740B2

Assay: Probucol dissolution study (spray dried dispersions or crystalline API) in phosphate buffer pH 6.5 with simulated intestinal fluid powder, 37° C., HPLC
Assay type: physicochemical
Details: pH 6.5, fassif, thermodynamic from solid
measured.metric: solubility

Ask: Give a short answer stating reported solubility for CC(C)(Sc1cc(C(C)(C)C)c(O)c(C(C)(C)C)c1)Sc1cc(C(C)(C)C)c(O)c(C(C)(C)C)c1 .
Reply: 4 µg/mL
